# PROCEDURE_SUMMARY: in vivo
# EXPERIMENTAL_CONTEXT: female, Balb/c nude, mouse, plasma, iv, 300 ug/kg
ENDPOINT: clearance (mL/min/kg)
Form entry: value (mL/min/kg) — number only.

# input What clearance value was documented for this molecule, Oc1cccc(-c2c3nc(c(-c4cccc(O)c4)c4ccc([nH]4)c(-c4cccc(O)c4)c4nc(c(-c5cccc(O)c5)c5ccc2[nH]5)CC4)C=C3)c1 [Free mTHPC, meta-tetra(hydroxyphenyl)chlorin] ?
# output 0.22

* * *

# PROCEDURE_SUMMARY: in vivo
# EXPERIMENTAL_CONTEXT: female, Balb/c nude, mouse, plasma, iv, 300 ug/kg
ENDPOINT: Vd (L/kg)
Form entry: value (L/kg) — number only.

# input What Vd value was documented for this molecule, Oc1cccc(-c2c3nc(c(-c4cccc(O)c4)c4ccc([nH]4)c(-c4cccc(O)c4)c4nc(c(-c5cccc(O)c5)c5ccc2[nH]5)CC4)C=C3)c1 [Free mTHPC, meta-tetra(hydroxyphenyl)chlorin] ?
# output 0.12

* * *

# PROCEDURE_SUMMARY: in vivo
# EXPERIMENTAL_CONTEXT: female, Balb/c nude, mouse, tumor, kidney, heart, femur, intravenous, 0.3 mg/kg
ENDPOINT: tissue uptake at 24 h

# input What tissue uptake at 24 h value was documented for this molecule, Oc1cccc(-c2c3nc(c(-c4cccc(O)c4)c4ccc([nH]4)c(-c4cccc(O)c4)c4nc(c(-c5cccc(O)c5)c5ccc2[nH]5)CC4)C=C3)c1 [Free mTHPC, meta-tetra(hydroxyphenyl)chlorin] ?
# output 2 to 3 %ID/g

* * *

# PROCEDURE_SUMMARY: in vivo
# EXPERIMENTAL_CONTEXT: female, Balb/c nude, mouse, liver, intravenous, 0.3 mg/kg
ENDPOINT: tissue uptake at 4 h

# input What tissue uptake at 4 h value was documented for this compound, Oc1cccc(-c2c3nc(c(-c4cccc(O)c4)c4ccc([nH]4)c(-c4cccc(O)c4)c4nc(c(-c5cccc(O)c5)c5ccc2[nH]5)CC4)C=C3)c1 [Free mTHPC, meta-tetra(hydroxyphenyl)chlorin] ?
# output ~15 %ID/g

* * *

# PROCEDURE_SUMMARY: in vivo
# EXPERIMENTAL_CONTEXT: female, Balb/c nude, mouse, liver, intravenous, 0.3 mg/kg
ENDPOINT: tissue uptake at 24 h

# input What tissue uptake at 24 h value was documented for this molecule, Oc1cccc(-c2c3nc(c(-c4cccc(O)c4)c4ccc([nH]4)c(-c4cccc(O)c4)c4nc(c(-c5cccc(O)c5)c5ccc2[nH]5)CC4)C=C3)c1 [Free mTHPC, meta-tetra(hydroxyphenyl)chlorin] ?
# output ~5 %ID/g
